Assay: Dissolution comparison of Nα-Nsc-amino acids and Nα-Fmoc-amino acids
Format: physicochemical
Set-up: key: ◯: dissolution; Δ: partial dissolution; X: no dissolution
Conditions: Nsc-amino acid, 100 mg in 1 ml dichloromethane, stirring 5 minutes
Property Measured: Dissolved state, Nsc, column A

The cases that follow already have their Dissolved state, Nsc, column A on record.
# Compound, Readout Value
records = [
    ("C[C@H](NC(=O)OCCS(=O)(=O)c1ccc([N+](=O)[O-])cc1)C(=O)O", "X"),
    ("CC[C@H](C)[C@H](NC(=O)OCCS(=O)(=O)c1ccc([N+](=O)[O-])cc1)C(=O)O", "Δ"),
    ("O=C(O)[C@@H]1CCCN1C(=O)OCCS(=O)(=O)c1ccc([N+](=O)[O-])cc1", "◯"),
    ("CC(C)(C)OC(=O)CCC(NC(=O)OCCS(=O)(=O)c1ccc([N+](=O)[O-])cc1)C(=O)O (stereo not shown)", "◯"),
    ("O=C(N[C@@H](Cc1c[nH]c2ccccc12)C(=O)O)OCCS(=O)(=O)c1ccc([N+](=O)[O-])cc1", "X"),
    ("O=C(NC(Cc1cn(C(c2ccccc2)(c2ccccc2)c2ccccc2)cn1)C(=O)O)OCCS(=O)(=O)c1ccc([N+](=O)[O-])cc1 (stereo not shown)", "Δ"),
    ("CC(C)C(NC(=O)OCCS(=O)(=O)c1ccc([N+](=O)[O-])cc1)C(=O)O (stereo not shown)", "◯"),
    ("O=C(O)CNC(=O)OCCS(=O)(=O)c1ccc([N+](=O)[O-])cc1", "X"),
    ("CSCC[C@H](NC(=O)OCCS(=O)(=O)c1ccc([N+](=O)[O-])cc1)C(=O)O", "Δ"),
]

Next item in the queue.
Quick check: Dissolved state, Nsc, column A of CC(C)(C)Oc1ccc(CC(NC(=O)OCCS(=O)(=O)c2ccc([N+](=O)[O-])cc2)C(=O)O)cc1 (stereo not shown) ?
◯

====

Assay: Dissolution comparison of Nα-Nsc-amino acids and Nα-Fmoc-amino acids
Type: physicochemical
Parameters: key: ◯: dissolution; Δ: partial dissolution; X: no dissolution
Settings: Nsc-amino acid, 15% DMF/DCM, stirring 5 minutes
Property Measured: Dissolved state, Nsc, column C

The cases that follow already have their Dissolved state, Nsc, column C on record.
# Compound, Dissolved state, Nsc, column C
rows = [
    ("O=C(O)CNC(=O)OCCS(=O)(=O)c1ccc([N+](=O)[O-])cc1", "Δ"),
    ("CC(C)CC(NC(=O)OCCS(=O)(=O)c1ccc([N+](=O)[O-])cc1)C(=O)O (stereo not shown)", "Δ"),
    ("CC[C@H](C)[C@H](NC(=O)OCCS(=O)(=O)c1ccc([N+](=O)[O-])cc1)C(=O)O", "◯"),
    ("O=C(CC(NC(=O)OCCS(=O)(=O)c1ccc([N+](=O)[O-])cc1)C(=O)O)NC(c1ccccc1)(c1ccccc1)c1ccccc1 (stereo not shown)", "◯"),
    ("CC(C)(C)OC(=O)CCC(NC(=O)OCCS(=O)(=O)c1ccc([N+](=O)[O-])cc1)C(=O)O (stereo not shown)", "◯"),
]

Would you mind giving Dissolved state, Nsc, column C for every compound in the list below?
1. CC(OC(C)(C)C)C(NC(=O)OCCS(=O)(=O)c1ccc([N+](=O)[O-])cc1)C(=O)O (stereo not shown)
2. CC(C)(C)OCC(NC(=O)OCCS(=O)(=O)c1ccc([N+](=O)[O-])cc1)C(=O)O (stereo not shown)
3. O=C(N[C@@H](Cc1ccccc1)C(=O)O)OCCS(=O)(=O)c1ccc([N+](=O)[O-])cc1
4. O=C(NC(Cc1cn(C(c2ccccc2)(c2ccccc2)c2ccccc2)cn1)C(=O)O)OCCS(=O)(=O)c1ccc([N+](=O)[O-])cc1 (stereo not shown)
5. C[C@H](NC(=O)OCCS(=O)(=O)c1ccc([N+](=O)[O-])cc1)C(=O)O

◯
◯
◯
◯
◯
